Assay: Dog PK study of solid forms and formulations
Format: in vivo, Beagle dogs
Settings: Table 5B, forms of P-1021, dog, dose 150 mg/dog, 10 kg weight assumed
Protocol: Pharmacokinetic properties of various compositions prepared from the complexes may be assessed in male Sprague Dawley rats or male Beagle dogs, and compared to the properties of the free base compound. […] The arginine complex of N-[3-(5-chloro-1H-pyrrolo[2,3-b]pyridine-3-carbonyl)-2,4-difluoro-phenyl]-4-trifluoromethyl-benzenesulfonamide P-1021 was analyzed in a number of dog PK studies following the above or similar protocols. […]
Measured Cmax/dose values are reported for all entries that follow.

These recorded examples may help you get a feel for the data.
O=C(c1c(F)ccc(NS(=O)(=O)c2ccc(C(F)(F)F)cc2)c1F)c1c[nH]c2ncc(Cl)cc12 [P-1021 arginine complex]
810 (ng/mL)/(mg/kg)
O=C(c1c(F)ccc(NS(=O)(=O)c2ccc(C(F)(F)F)cc2)c1F)c1c[nH]c2ncc(Cl)cc12 [Amorphous free base]
33 (ng/mL)/(mg/kg)
O=C(c1c(F)ccc(NS(=O)(=O)c2ccc(C(F)(F)F)cc2)c1F)c1c[nH]c2ncc(Cl)cc12 [Mesylate]
116 (ng/mL)/(mg/kg)

# input Please report the recorded Cmax/dose for O=C(c1c(F)ccc(NS(=O)(=O)c2ccc(C(F)(F)F)cc2)c1F)c1c[nH]c2ncc(Cl)cc12 [Free base] .
# output 482 (ng/mL)/(mg/kg)

###

molecular target: Kdr (Homo sapiens, UniProt P35968)
Sequence (P35968 20-1356): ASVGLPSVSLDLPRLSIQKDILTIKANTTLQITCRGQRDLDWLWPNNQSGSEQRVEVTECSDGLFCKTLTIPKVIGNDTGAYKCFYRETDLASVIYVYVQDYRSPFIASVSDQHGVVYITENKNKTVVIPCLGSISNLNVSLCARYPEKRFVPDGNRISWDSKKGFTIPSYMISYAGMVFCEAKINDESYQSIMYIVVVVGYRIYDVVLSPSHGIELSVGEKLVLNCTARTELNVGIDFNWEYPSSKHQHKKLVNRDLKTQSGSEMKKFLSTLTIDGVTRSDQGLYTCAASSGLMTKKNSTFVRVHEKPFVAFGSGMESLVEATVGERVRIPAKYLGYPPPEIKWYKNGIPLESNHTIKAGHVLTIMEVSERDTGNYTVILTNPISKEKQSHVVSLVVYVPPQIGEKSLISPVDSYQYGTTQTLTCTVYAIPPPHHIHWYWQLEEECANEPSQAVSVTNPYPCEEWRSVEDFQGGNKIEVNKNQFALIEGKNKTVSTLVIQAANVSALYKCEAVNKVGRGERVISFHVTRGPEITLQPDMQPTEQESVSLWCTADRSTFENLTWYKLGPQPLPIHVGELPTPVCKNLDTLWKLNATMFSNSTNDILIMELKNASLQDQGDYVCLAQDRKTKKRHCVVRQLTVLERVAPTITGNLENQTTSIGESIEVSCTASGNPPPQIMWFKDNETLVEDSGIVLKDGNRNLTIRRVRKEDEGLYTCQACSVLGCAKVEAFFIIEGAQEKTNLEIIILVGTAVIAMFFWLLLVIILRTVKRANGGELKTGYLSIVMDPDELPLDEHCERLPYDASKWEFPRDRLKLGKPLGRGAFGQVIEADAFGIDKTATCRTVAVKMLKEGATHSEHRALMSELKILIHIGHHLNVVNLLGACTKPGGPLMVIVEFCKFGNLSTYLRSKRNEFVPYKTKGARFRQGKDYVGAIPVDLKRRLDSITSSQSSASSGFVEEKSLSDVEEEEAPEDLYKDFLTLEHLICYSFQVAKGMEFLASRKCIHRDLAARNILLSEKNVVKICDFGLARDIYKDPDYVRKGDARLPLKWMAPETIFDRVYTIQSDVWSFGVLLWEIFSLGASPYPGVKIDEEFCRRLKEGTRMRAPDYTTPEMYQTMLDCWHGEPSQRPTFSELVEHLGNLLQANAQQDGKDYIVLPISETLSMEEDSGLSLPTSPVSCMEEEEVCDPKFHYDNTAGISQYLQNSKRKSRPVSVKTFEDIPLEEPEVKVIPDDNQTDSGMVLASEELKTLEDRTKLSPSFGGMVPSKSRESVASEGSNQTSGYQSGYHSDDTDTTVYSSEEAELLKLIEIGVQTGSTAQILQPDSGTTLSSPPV
pIC50: −log10 of the molar value.
METRIC_NAME: pIC50

These recorded examples may help you get a feel for the data.
COc1ccnc2[nH]cc(C(=O)c3c(F)ccc(NS(=O)(=O)c4cc(F)ccc4F)c3F)c12
≥ 5.00
CS(=O)(=O)Nc1ccc(F)c(C(=O)c2c[nH]c3nccc(Cl)c23)c1F
≥ 5.00
N#Cc1ccnc2[nH]cc(C(=O)c3c(F)ccc(NS(=O)(=O)c4c(F)cccc4F)c3F)c12
≥ 5.00

# input Please report the recorded pIC50 for CCS(=O)(=O)Nc1ccc(F)c(C(=O)c2c[nH]c3ncc(-c4ccc(Cl)cc4)cc23)c1F .
# output ≥ 5.00

###

molecular target: PI3Kγ (Homo sapiens)
Sequence (P48736 whole entry): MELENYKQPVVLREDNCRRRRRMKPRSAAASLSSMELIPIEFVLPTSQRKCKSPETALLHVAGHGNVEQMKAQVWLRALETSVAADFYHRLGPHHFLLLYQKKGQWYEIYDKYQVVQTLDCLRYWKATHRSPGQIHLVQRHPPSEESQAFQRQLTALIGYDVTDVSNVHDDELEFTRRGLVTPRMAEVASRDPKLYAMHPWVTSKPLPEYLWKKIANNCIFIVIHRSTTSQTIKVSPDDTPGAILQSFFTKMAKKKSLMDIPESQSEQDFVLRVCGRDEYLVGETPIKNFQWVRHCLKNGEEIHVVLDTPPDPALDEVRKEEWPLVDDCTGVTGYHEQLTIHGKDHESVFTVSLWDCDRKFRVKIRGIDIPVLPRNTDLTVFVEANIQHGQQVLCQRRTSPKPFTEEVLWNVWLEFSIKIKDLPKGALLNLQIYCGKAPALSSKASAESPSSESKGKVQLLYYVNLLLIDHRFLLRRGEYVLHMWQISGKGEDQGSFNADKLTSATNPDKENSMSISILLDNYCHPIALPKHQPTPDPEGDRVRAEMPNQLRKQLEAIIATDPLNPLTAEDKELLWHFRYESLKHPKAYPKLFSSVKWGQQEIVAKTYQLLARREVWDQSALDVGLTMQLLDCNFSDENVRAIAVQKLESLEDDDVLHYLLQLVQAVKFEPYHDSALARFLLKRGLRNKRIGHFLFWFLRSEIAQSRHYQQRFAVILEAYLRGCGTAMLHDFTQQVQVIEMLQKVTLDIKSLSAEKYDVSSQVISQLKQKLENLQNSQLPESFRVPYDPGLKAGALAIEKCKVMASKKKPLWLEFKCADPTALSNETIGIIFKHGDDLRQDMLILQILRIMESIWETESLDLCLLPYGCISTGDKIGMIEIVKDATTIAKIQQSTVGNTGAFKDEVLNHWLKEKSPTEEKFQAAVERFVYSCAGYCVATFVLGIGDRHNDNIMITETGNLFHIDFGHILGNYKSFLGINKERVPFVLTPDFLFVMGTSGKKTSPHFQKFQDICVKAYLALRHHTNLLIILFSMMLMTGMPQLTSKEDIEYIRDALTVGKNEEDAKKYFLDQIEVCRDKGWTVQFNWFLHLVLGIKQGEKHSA
Measured IC50 values are reported for all entries that follow.

# input Request - read-out IC50 | tested on PI3Kγ (Homo sapiens) | compound CCCS(=O)(=O)Nc1ccc(F)c(C(=O)c2c[nH]c3ncc(-c4cncc(S(C)(=O)=O)c4)cc23)c1F
# output ≤ 10 µM

# input Same question for CCCS(=O)(=O)Nc1ccc(F)c(C(=O)c2c[nH]c3ncc(-c4ccc(C(N)=O)nc4)cc23)c1F please.
# output ≤ 10 µM

###

test: Dog PK study of solid forms and formulations; type: in vivo, Beagle dogs; conditions: Table 5B, forms of P-1021, dog, dose 150 mg/dog, 10 kg weight assumed
METRIC_NAME: AUC∞/dose

These recorded examples may help you get a feel for the data.
O=C(c1c(F)ccc(NS(=O)(=O)c2ccc(C(F)(F)F)cc2)c1F)c1c[nH]c2ncc(Cl)cc12 [P-1021 arginine complex]
34,693 (ng*hr/mL)/(mg/kg)
O=C(c1c(F)ccc(NS(=O)(=O)c2ccc(C(F)(F)F)cc2)c1F)c1c[nH]c2ncc(Cl)cc12 [Free base]
5,270 (ng*hr/mL)/(mg/kg)
O=C(c1c(F)ccc(NS(=O)(=O)c2ccc(C(F)(F)F)cc2)c1F)c1c[nH]c2ncc(Cl)cc12 [Mesylate]
2,849 (ng*hr/mL)/(mg/kg)

API: the following record is the query input.
# input Please report the recorded AUC∞/dose for O=C(c1c(F)ccc(NS(=O)(=O)c2ccc(C(F)(F)F)cc2)c1F)c1c[nH]c2ncc(Cl)cc12 [Amorphous free base] .
# output 482 (ng*hr/mL)/(mg/kg)

###

Measured Cmax/dose values are reported for all entries that follow.
assay: Rat PK study of P-1496 free base, arginine and lysine complex; format: in vivo, Sprague-Dawley rats; details: Table 10B, rats, dose 100, in PEG400:water by oral gavage 10 mL/kg

These recorded examples may help you get a feel for the data.
CCCS(=O)(=O)Nc1ccc(F)c(C(=O)c2c[nH]c3ncc(-c4cnc(OC)nc4)cc23)c1F [P-1496 arginine complex]
159 (ng/mL)/(mg/kg)
CCCS(=O)(=O)Nc1ccc(F)c(C(=O)c2c[nH]c3ncc(-c4cnc(OC)nc4)cc23)c1F [P-1496 free base]
106 (ng/mL)/(mg/kg)

API: the following record is the query input.
# input Please report the recorded Cmax/dose for CCCS(=O)(=O)Nc1ccc(F)c(C(=O)c2c[nH]c3ncc(-c4cnc(OC)nc4)cc23)c1F [P-1496 lysine complex] .
# output 283 (ng/mL)/(mg/kg)

###

biological target: B-Raf V600E (Homo sapiens, UniProt P15056, V600E); assay: Kinase activity assay, B-Raf V600E; details: read-out: activity toward kinase B-Raf V600E, IC50
Sequence (P15056 whole entry V600E): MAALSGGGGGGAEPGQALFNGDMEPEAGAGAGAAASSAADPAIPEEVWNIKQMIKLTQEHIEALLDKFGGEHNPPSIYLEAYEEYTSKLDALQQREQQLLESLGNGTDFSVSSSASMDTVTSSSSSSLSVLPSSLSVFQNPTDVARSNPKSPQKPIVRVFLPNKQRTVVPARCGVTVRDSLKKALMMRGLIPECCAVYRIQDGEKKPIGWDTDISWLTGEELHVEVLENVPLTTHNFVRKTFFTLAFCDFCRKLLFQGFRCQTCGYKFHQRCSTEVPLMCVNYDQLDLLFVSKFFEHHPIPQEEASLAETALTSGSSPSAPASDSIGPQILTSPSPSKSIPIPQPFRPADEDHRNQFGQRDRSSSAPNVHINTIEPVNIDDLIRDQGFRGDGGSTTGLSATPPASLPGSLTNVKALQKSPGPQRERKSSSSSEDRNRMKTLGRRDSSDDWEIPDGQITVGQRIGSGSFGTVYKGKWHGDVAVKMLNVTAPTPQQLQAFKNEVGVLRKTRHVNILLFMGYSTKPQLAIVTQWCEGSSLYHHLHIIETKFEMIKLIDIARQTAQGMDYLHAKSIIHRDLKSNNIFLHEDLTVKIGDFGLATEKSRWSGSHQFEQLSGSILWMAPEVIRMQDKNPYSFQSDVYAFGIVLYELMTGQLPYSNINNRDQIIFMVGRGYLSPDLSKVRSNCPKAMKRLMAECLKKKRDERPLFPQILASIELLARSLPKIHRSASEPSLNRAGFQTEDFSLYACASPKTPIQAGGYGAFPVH
pIC50: −log10 of the molar value.
METRIC_NAME: pIC50

CCCCS(=O)(=O)Nc1ccc(F)c(C(=O)c2c[nH]c3ncc(-c4cnn(C)c4)cc23)c1 [P-2432]
≥ 5.00

# input Please report the recorded pIC50 for COc1ccnc2[nH]cc(C(=O)c3c(F)ccc(NS(=O)(=O)c4c(F)cccc4F)c3F)c12 [P-2031] .
# output ≥ 5.00

# input Same question for Cn1cc(-c2cnc3[nH]cc(C(=O)c4cccc(NS(=O)(=O)C5CCCCC5)c4)c3c2)cn1 [P-2457] please.
# output ≥ 5.00

# input Same question for CS(=O)(=O)c1cccc(-c2cnc3[nH]cc(C(=O)c4cc(NS(=O)(=O)C5CCCCC5)ccc4F)c3c2)c1 [P-2444] please.
# output ≥ 5.00

###

target: B-Raf V600E (Homo sapiens, UniProt P15056, V600E); assay: Kinase activity assay, B-Raf V600E; assay type: biochemical; details: read-out: activity toward kinase B-Raf V600E, IC50
METRIC_NAME: IC50

These recorded examples may help you get a feel for the data.
Cn1cc(-c2cnc3[nH]cc(C(=O)c4cccc(NS(=O)(=O)c5ccc(Cl)cc5)c4)c3c2)cn1
≤ 10 µM
CCCS(=O)(=O)Nc1ccc(F)c(C(=O)c2c[nH]c3ncc(CN(CC)CC)cc23)c1F
≤ 10 µM

# input Request - read-out IC50 | tested on B-Raf V600E (Homo sapiens, UniProt P15056, V600E) | molecule N#Cc1cnc2[nH]cc(C(=O)c3cccc(NS(=O)(=O)N4CCOCC4)c3F)c2c1
# output ≤ 10 µM

# input Same question for Cn1cc(-c2cnc3[nH]cc(C(=O)c4cc(NS(=O)(=O)c5cccnc5)ccc4F)c3c2)cn1 please.
# output ≤ 10 µM

# input Same question for CCCS(=O)(=O)Nc1ccc(F)c(C(=O)c2c[nH]c3ncc(C(F)(F)F)cc23)c1F please.
# output ≤ 10 µM

# input Same question for CCCC(C)S(=O)(=O)Nc1ccc(F)c(C(=O)c2c[nH]c3ncc(Cl)cc23)c1F (centres unmarked) please.
# output ≤ 10 µM

# input Same question for COc1ncc(-c2cnc3[nH]cc(C(=O)c4c(F)ccc(NS(=O)(=O)c5c(F)cccc5F)c4F)c3c2)cn1 please.
# output ≤ 10 µM

# input Same question for Cc1cnc2[nH]cc(C(=O)c3c(F)ccc(NS(=O)(=O)c4cccnc4)c3F)c2c1 please.
# output ≤ 10 µM

###

Each entry below carries its measured pIC50, system: Kit (Homo sapiens, UniProt P10721).
Sequence (P10721 26-976): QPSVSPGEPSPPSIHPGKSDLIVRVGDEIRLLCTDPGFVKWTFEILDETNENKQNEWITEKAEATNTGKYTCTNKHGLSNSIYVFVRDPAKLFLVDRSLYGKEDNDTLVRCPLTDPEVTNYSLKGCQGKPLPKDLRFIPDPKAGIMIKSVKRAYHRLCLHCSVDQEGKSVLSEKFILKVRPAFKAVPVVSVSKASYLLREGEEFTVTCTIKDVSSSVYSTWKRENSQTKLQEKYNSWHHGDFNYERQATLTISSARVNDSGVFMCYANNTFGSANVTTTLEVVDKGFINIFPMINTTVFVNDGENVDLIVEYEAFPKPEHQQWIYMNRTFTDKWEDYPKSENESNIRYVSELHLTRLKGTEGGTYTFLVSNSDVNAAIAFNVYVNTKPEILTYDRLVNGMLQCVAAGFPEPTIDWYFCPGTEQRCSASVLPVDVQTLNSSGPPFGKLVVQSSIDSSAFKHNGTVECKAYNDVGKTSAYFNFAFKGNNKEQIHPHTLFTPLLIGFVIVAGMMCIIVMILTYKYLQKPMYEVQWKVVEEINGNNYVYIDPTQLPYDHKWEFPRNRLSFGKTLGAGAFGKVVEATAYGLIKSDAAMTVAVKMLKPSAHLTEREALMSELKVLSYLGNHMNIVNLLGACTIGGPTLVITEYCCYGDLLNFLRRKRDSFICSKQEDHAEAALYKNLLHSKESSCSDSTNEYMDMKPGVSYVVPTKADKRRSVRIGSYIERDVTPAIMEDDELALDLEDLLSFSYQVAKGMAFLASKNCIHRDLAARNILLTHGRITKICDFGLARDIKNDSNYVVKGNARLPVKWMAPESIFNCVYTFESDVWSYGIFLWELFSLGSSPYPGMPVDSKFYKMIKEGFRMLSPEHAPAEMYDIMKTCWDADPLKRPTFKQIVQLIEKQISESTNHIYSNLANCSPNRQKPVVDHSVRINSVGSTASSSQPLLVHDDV
pIC50: −log10 of the molar value.

These recorded examples may help you get a feel for the data.
O=C(c1c(F)ccc(NS(=O)(=O)C(F)(F)F)c1F)c1c[nH]c2ncc(-c3ccc(Cl)cc3)cc12 [P-2343]
≥ 5.00
COc1cnc2[nH]cc(C(=O)c3cccc(NS(=O)(=O)C4CCCCC4)c3)c2c1 [P-2460]
≥ 5.00
COc1ncc(-c2cnc3[nH]cc(C(=O)c4c(F)ccc(NS(=O)(=O)CCC(F)(F)F)c4F)c3c2)cn1 [P-2333]
≥ 5.00
NC(=O)c1cccc(-c2cnc3[nH]cc(C(=O)c4cccc(NS(=O)(=O)c5cccnc5)c4)c3c2)c1 [P-2147]
≥ 5.00
O=C(CCCCC1SCC2NC(=O)NC21)NCCCCCNC(=O)CCc1cnc2[nH]cc(C(=O)c3c(F)ccc(NS(=O)(=O)c4ccc(C(F)(F)F)cc4)c3F)c2c1 (stereo not shown) [P-2008]
≥ 5.00
O=C(c1cccc(NS(=O)(=O)c2cccc(OC(F)(F)F)c2)c1)c1c[nH]c2ncc(Cl)cc12 [P-2124]
≥ 5.00

# input Please report the recorded pIC50 for CCCS(=O)(=O)Nc1ccc(F)c(C(=O)c2c[nH]c3ncc(-c4ccc(OCCCN(C)C)nc4)cc23)c1F [P-2178] .
# output ≥ 5.00

###

target: Kit (Homo sapiens, UniProt P10721)
Measured IC50 values are reported for all entries that follow.

These recorded examples may help you get a feel for the data.
CC(C)S(=O)(=O)Nc1ccc(F)c(C(=O)c2c[nH]c3ncc(Cl)cc23)c1F [P-2275]
≤ 10 µM
COc1cnc2[nH]cc(C(=O)c3c(F)ccc(NS(=O)(=O)C4CCCC4)c3F)c2c1 [P-2356]
≤ 10 µM
O=C(c1c(F)ccc(NS(=O)(=O)C(F)(F)F)c1F)c1c[nH]c2ncc(-c3ccc(F)cc3)cc12 [P-2344]
≤ 10 µM

API: the following record is the query input.
# input Please report the recorded IC50 for N#Cc1ccnc2[nH]cc(C(=O)c3c(F)ccc(NS(=O)(=O)c4ccccc4F)c3F)c12 [P-2020] .
# output ≤ 10 µM

Data origin, for the record: patent US20120122860A1
